The following molecules are shown together with reported pIC50 values.
# target-system: HIV integrase (Human immunodeficiency virus type 1 group M subtype B, UniProt P04585)
pIC50: −log10 of the molar value.

## Input Retrieve pIC50 on HIV integrase (Human immunodeficiency virus type 1 group M subtype B, UniProt P04585); query `CC(C)OC(=O)Oc1c2c(c(N(C)S(C)(=O)=O)c3cccnc13)CN(Cc1ccc(F)cc1)C2=O`
## Output < 6.00

## Input Retrieve pIC50 on HIV integrase (Human immunodeficiency virus type 1 group M subtype B, UniProt P04585); query `CN(C)C(=O)C(=O)N(C)c1c2c(c(O)c3ncccc13)C(=O)N(Cc1ccc(F)cc1)C2`
## Output 6.00 to 7.22

## Input Retrieve pIC50 on HIV integrase (Human immunodeficiency virus type 1 group M subtype B, UniProt P04585); query `CN(c1c2c(c(O)c3ncccc13)C(=O)N(Cc1ccc(F)cc1)C2)S(C)(=O)=O`
## Output > 7.22

## Input Retrieve pIC50 on HIV integrase (Human immunodeficiency virus type 1 group M subtype B, UniProt P04585); query `CN(c1c2c(c(O)c3ncccc13)C(=O)N(Cc1ccc(F)nc1)C2)S(C)(=O)=O`
## Output 6.00 to 7.22

## Input Retrieve pIC50 on HIV integrase (Human immunodeficiency virus type 1 group M subtype B, UniProt P04585); query `CN(c1c2c(c(O)c3ncccc13)C(=O)N(Cc1cccc(Cl)c1F)C2)S(C)(=O)=O`
## Output 6.00 to 7.22

## Input Retrieve pIC50 on HIV integrase (Human immunodeficiency virus type 1 group M subtype B, UniProt P04585); query `CN(c1c2c(c(O)c3ncccc13)C(=O)N(Cc1ccc(F)cc1)C2)S(=O)(=O)CCN1CCOCC1`
## Output > 7.22

## Input Retrieve pIC50 on HIV integrase (Human immunodeficiency virus type 1 group M subtype B, UniProt P04585); query `Cc1nc(C)c(S(=O)(=O)N(C)c2c3c(c(O)c4ncccc24)C(=O)N(Cc2ccc(F)cc2)C3)s1`
## Output 6.00 to 7.22

###

The following compounds are shown together with reported pIC50 values.
# target-system: HIV integrase (Human immunodeficiency virus type 1 group M subtype B, UniProt P04585)
# method: biochemical
pIC50: −log10 of the molar value.

Some entries whose results are on file:
* C[C@@H]1c2c(c(O)c3ncccc3c2N(C)S(C)(=O)=O)C(=O)N1Cc1ccc(F)cc1 (single isomer, unassigned) [Compound 76] | > 7.22
* CCC(CC)OC(=O)OCOc1c2c(c(N(C)S(C)(=O)=O)c3cccnc13)CN(Cc1ccc(F)cc1)C2=O [Compound 32] | < 6.00
* CN(c1c2c(c(O)c3ncccc13)C(=O)N(Cc1ccc(F)cc1)C2(C)C)S(C)(=O)=O [Compound 71] | 6.00 to 7.22

## Input Give the reported value of pIC50 for this record: CN(c1c2c(c(O)c3ncccc13)C(=O)N(Cc1ccc(F)cc1)C2=O)S(C)(=O)=O [Compound 152]
## Output > 7.22

## Input Give the reported value of pIC50 for this record: CN(C(=O)N1CCOCC1)c1c2c(c(O)c3ncccc13)C(=O)N(Cc1ccc(F)cc1)C2 [Compound 173]
## Output 6.00 to 7.22

## Input Give the reported value of pIC50 for this record: CN(c1c2c(c(O)c3ncccc13)C(=O)N(Cc1ccc(F)cc1)C2)S(=O)(=O)CCN1CCNCC1 [Compound 164]
## Output 6.00 to 7.22

## Input Give the reported value of pIC50 for this record: CC(C)OC(=O)OCOc1c2c(c(N(C)S(C)(=O)=O)c3cccnc13)CN(Cc1ccc(F)cc1)C2=O [Compound 33]
## Output < 6.00

## Input Give the reported value of pIC50 for this record: O=C1c2c(c(N3CCCNS3(=O)=O)c3cccnc3c2O)CN1Cc1ccc(F)cc1 [Compound 215]
## Output 6.00 to 7.22

## Input Give the reported value of pIC50 for this record: CC(=O)Nc1nc(C)c(S(=O)(=O)N(C)c2c3c(c(O)c4ncccc24)C(=O)N(Cc2ccc(F)cc2)C3)s1 [Compound 160]
## Output 6.00 to 7.22

###

Read-out record for HIV integrase (Human immunodeficiency virus type 1 group M subtype B): IC50

• O=C1c2c(c(N3CCNC3=O)c3cccnc3c2O)CN1Cc1ccc(F)cc1 [Compound 221] = < 60 nM
• CN(C)CCCS(=O)(=O)N(C)c1c2c(c(O)c3ncccc13)C(=O)N(Cc1ccc(F)cc1)C2 [Compound 44] = < 60 nM

## Input Retrieve IC50 on HIV integrase (Human immunodeficiency virus type 1 group M subtype B); query CCN(CC)CCS(=O)(=O)N(C)c1c2c(c(O)c3ncccc13)C(=O)N(Cc1ccc(F)cc1)C2 [Compound 161]
## Output 60 to 1000 nM

## Input Retrieve IC50 on HIV integrase (Human immunodeficiency virus type 1 group M subtype B); query CN(c1c2c(c(O)c3ncccc13)C(=O)N(Cc1ccc(F)cc1N)C2)S(C)(=O)=O [Compound 103]
## Output < 60 nM

## Input Retrieve IC50 on HIV integrase (Human immunodeficiency virus type 1 group M subtype B); query CN(c1c2c(c(O)c3ncccc13)C(=O)N(Cc1ccc(F)cc1)C2)S(=O)(=O)c1ccccn1 [Compound 158]
## Output 60 to 1000 nM

## Input Retrieve IC50 on HIV integrase (Human immunodeficiency virus type 1 group M subtype B); query CN(c1c2c(c(O)c3ncccc13)C(=O)N(Cc1cc(Cl)ccc1F)C2)S(C)(=O)=O [Compound 211]
## Output 60 to 1000 nM

## Input Retrieve IC50 on HIV integrase (Human immunodeficiency virus type 1 group M subtype B); query CCOC(=O)N(C)c1c2c(c(O)c3ncccc13)C(=O)N(Cc1ccc(F)cc1)C2(C)C [Compound 115]
## Output 60 to 1000 nM

## Input Retrieve IC50 on HIV integrase (Human immunodeficiency virus type 1 group M subtype B); query CN(c1c2c(c(O)c3ncccc13)C(=O)N(Cc1ccc(F)cc1C#N)C2)S(C)(=O)=O [Compound 100]
## Output 60 to 1000 nM

###

Read-out record for HIV integrase (Human immunodeficiency virus type 1 group M subtype B, UniProt P04585): IC50

• CC1c2c(c(O)c3ncccc3c2N(C)S(C)(=O)=O)C(=O)N1Cc1ccc(F)cc1 (racemic) = < 60 nM
• O=C1c2c(c(N3CCCNC3=O)c3cccnc3c2O)CN1Cc1ccc(F)cc1 = 60 to 1000 nM
• CC(=O)N(C)c1c2c(c(O)c3ncccc13)C(=O)N(Cc1ccc(F)cc1)C2 = < 60 nM

Proceed to the following item.
## Input Give the reported value of IC50 for this record: `CN(C)S(=O)(=O)N(C)c1c2c(c(O)c3ncccc13)C(=O)N(Cc1ccc(F)cc1)C2`
## Output 60 to 1000 nM

###

The following compounds are shown together with reported IC50 values.
# target-system: HIV integrase (Human immunodeficiency virus type 1 group M subtype B)

Some entries whose results are on file:
• CC(C)C(=O)N(C)c1c2c(c(O)c3ncccc13)C(=O)N(Cc1ccc(F)cc1)C2 = < 60 nM
• CN(C)C(=O)N(C)c1c2c(c(O)c3ncccc13)C(=O)N(Cc1ccc(F)cc1)C2 = < 60 nM
• COc1ccc(CN2Cc3c(c(O)c4ncccc4c3N(C)S(C)(=O)=O)C2=O)c(OC)c1 = 60 to 1000 nM

Proceed to the following item.
## Input Retrieve IC50 on HIV integrase (Human immunodeficiency virus type 1 group M subtype B); query `CC(C)C(=O)Nc1c2c(c(O)c3ncccc13)C(=O)N(Cc1ccc(F)cc1)C2`
## Output < 60 nM

###

pIC50: −log10 of the molar value.
Read-out record for HIV integrase (Human immunodeficiency virus type 1 group M subtype B, UniProt P04585): pIC50

Some entries whose results are on file:
• CN(c1c2c(c(O)c3ncccc13)C(=O)N(Cc1cc(Cl)c(F)cc1F)C2)S(C)(=O)=O [Compound 204] = > 7.22
• CN(c1c2c(c(OCOC(=O)OC3CCC3)c3ncccc13)C(=O)N(Cc1ccc(F)cc1)C2)S(C)(=O)=O [Compound 31] = < 6.00
• CN(c1c2c(c(O)c3ncccc13)C(=O)N(Cc1ccc(F)cc1F)C2)S(C)(=O)=O [Compound 145] = > 7.22

## Input Retrieve pIC50 on HIV integrase (Human immunodeficiency virus type 1 group M subtype B, UniProt P04585); query CN(c1c2c(c(OCOC(=O)OC3CCCC3)c3ncccc13)C(=O)N(Cc1ccc(F)cc1)C2)S(C)(=O)=O [Compound 30]
## Output < 6.00

## Input Retrieve pIC50 on HIV integrase (Human immunodeficiency virus type 1 group M subtype B, UniProt P04585); query CN(c1c2c(c(O)c3ncccc13)C(=O)N(Cc1ccc(F)c(Cl)c1)C2)S(C)(=O)=O [Compound 181]
## Output > 7.22

## Input Retrieve pIC50 on HIV integrase (Human immunodeficiency virus type 1 group M subtype B, UniProt P04585); query CN(c1c2c(c(O)c3ncccc13)C(=O)N(Cc1ccc(F)c(F)c1)C2)S(C)(=O)=O [Compound 179]
## Output > 7.22

Reference for the values: patent US20070072831A1
